B1: Caulobacter ParB omega fusion; a variant is named by its letters at X, in order, B8GW30 (parent)
chain: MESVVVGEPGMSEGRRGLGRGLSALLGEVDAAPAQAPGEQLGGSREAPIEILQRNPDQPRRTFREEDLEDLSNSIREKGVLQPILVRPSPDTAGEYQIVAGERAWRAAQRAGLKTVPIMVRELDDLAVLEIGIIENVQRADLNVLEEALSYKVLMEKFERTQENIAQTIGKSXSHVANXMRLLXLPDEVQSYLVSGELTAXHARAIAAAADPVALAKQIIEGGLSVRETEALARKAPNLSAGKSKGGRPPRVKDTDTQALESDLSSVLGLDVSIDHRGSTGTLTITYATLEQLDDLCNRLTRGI

# Variants of: B1
# PROTOCOL DETAILS: one-hybrid fitness for binding NBS DNA (the Noc-binding site; scaled: cognate 1, non-cognate 0); higher = stronger binding
# CONDITION CONTEXT: with NBS DNA site
The full ranking holds about 81,000 sequences; the median of “one-hybrid fitness for binding NBS DNA” is about -0.1, and the highest 2% start at about 0.36. Only a selection was taken, and the highest values are over-represented in it overall.
Listed next: entries and their corresponding one-hybrid fitness for binding NBS DNA.

// known answers, use as guide
> print(dat)
    variant.label                         reported.metric  endpoint.value
 1           QCRH  one-hybrid fitness for binding NBS DNA           0.693
 2           LWGM  one-hybrid fitness for binding NBS DNA           ≤ 0.2
 3           RRAS  one-hybrid fitness for binding NBS DNA           0.655
 4           NEMS  one-hybrid fitness for binding NBS DNA           ≤ 0.2
 5           RRQY  one-hybrid fitness for binding NBS DNA           0.525
 6           LTMG  one-hybrid fitness for binding NBS DNA           ≤ 0.2
 7           RSHY  one-hybrid fitness for binding NBS DNA           ≤ 0.2
 8           RRSY  one-hybrid fitness for binding NBS DNA           0.393
 9           NMYI  one-hybrid fitness for binding NBS DNA           ≤ 0.2
10           YCQV  one-hybrid fitness for binding NBS DNA           ≤ 0.2

Qu. Determine from records and report one-hybrid fitness for binding NBS DNA for RCHY
Ans. 0.215

Qu. Determine from records and report one-hybrid fitness for binding NBS DNA for ATLR
Ans. ≤ 0.2

Qu. Determine from records and report one-hybrid fitness for binding NBS DNA for DQTE
Ans. ≤ 0.2
